Reported % UTC (Yap1 mRNA) values follow for various substances
Tested on: Yap1 mRNA
Assay: Dose-dependent inhibition of human Yap1 in SNU-449 cells (Example 9, RTS36584)
Format: cell-based
Conditions: 31.3 nM, free uptake, approximately 48 hours
Strand notation (5' to 3'): a small letter for the sugar, then the base; units joined by * are phosphorothioate-linked, units joined directly phosphodiester-linked; [ ] holds rarer units or linkages, { } end groups; capitals alone tell only the bases. e = 2'-O-(2-methoxyethyl) (MOE); k = constrained ethyl (cEt); [5mC] = 5-methylcytosine; d = 2'-deoxy (DNA); m = 2'-O-methyl
experimentalEndpoint: % UTC (Yap1 mRNA) (% UTC)

> print(dat)
                                   substance  assayresult
 1  1198917 (k[5mC]*kA*d[5mC]*dT*dT*dT*dT*dA*d[5mC]*dA*dT*kT*dA*kG*dG*kA; antisense) [compound 1198917]           81
 2  1198902 (kT*kT*dA*dG*dA*dG*dT*dA*dT*dG*dT*kG*dG*k[5mC]*dA*kA; antisense) [compound 1198902]           74
 3  1198267 (kA*kG*dT*dG*dT*dA*dT*dG*dT*d[5mC]*dA*eG*eA*eA*kG*kA; antisense) [compound 1198267]           78
 4  1074728 (antisense kT*kG*kA*dG*dG*dT*dA*dT*dA*dA*d[5mC]*dT*dG*kG*kG*k[5mC]) [compound 1074728]           69
 5  1197176 (kT*kG*kT*d[5mC]*dT*d[5mC]*dA*dT*dG*d[5mC]*d[5mC]*dT*dT*kA*kT*kA; antisense) [compound 1197176]           66
 6  1198918 (kG*k[5mC]*dA*d[5mC]*dT*dT*dT*dT*dA*d[5mC]*dA*kT*dT*kA*dG*kG) [compound 1198918]           60
 7  1200858 (kA*kA*kG*dT*dG*mU*dA*dT*dG*dT*d[5mC]*dA*dG*kA*kA*kG; antisense) [compound 1200858]           71
 8  1198856 (k[5mC]*kT*dT*dA*dT*dA*dT*dG*dG*dT*dT*kT*eT*kG*eT*kG; antisense) [compound 1198856]           72
 9  1198611 (kA*kG*kT*dG*dT*dA*dT*dG*dT*d[5mC]*dA*dG*kA*kA*kG*eA; antisense) [compound 1198611]           37
10  1197177 (kA*kT*kT*dG*dT*d[5mC]*dT*d[5mC]*dA*dT*dG*d[5mC]*d[5mC]*kT*kT*kA; antisense) [compound 1197177]           56
11  1198499 (kT*kT*dT*dA*dG*dG*dA*dT*dG*d[5mC]*dA*eT*kG*eG*kT*eT) [compound 1198499]           89
12  1198297 (kA*kT*kT*dA*dG*dA*dG*dT*dA*dT*dG*dT*kG*eG*k[5mC]*eA) [compound 1198297]           67
13  1200796 (kT*kT*kA*dG*dA*mG*dT*dA*dT*dG*dT*dG*dG*k[5mC]*kA*kA; antisense) [compound 1200796]           69
14  1198484 (kG*k[5mC]*dA*d[5mC]*dT*dT*dT*dT*dA*d[5mC]*dA*eT*kT*eA*kG*eG) [compound 1198484]           80
15  1200784 (kT*kG*kT*d[5mC]*dT*mC*dA*dT*dG*d[5mC]*d[5mC]*dT*dT*kA*kT*kA; antisense) [compound 1200784]           70
16  1198872 (TGTATGTCAGAAGAGT; chemically modified gapmer, further chemistry not given here) [compound 1198872]           49
17  1198875 (kA*kA*dA*dG*dT*dG*dT*dA*dT*dG*dT*k[5mC]*eA*kG*eA*kA; antisense) [compound 1198875]           61
18  1198422 (k[5mC]*dT*dT*dA*dT*dA*dT*dG*dG*dT*dT*kT*eT*kG*eT*kG) [compound 1198422]           88
19  1197269 (kT*kA*kA*dA*mG*dT*dG*dT*dA*dT*dG*dT*d[5mC]*kA*kG*kA; antisense) [compound 1197269]           48
20  1197215 (kA*kA*kG*dT*dG*dT*dA*dT*dG*dT*d[5mC]*dA*dG*kA*kA*kG) [compound 1197215]           56
21  1198289 (kG*kG*kA*dA*dA*dT*dT*dG*dT*d[5mC]*dT*d[5mC]*kA*eT*kG*e[5mC]; antisense) [compound 1198289]           72
22  958590 (kA*kG*kG*dT*dA*dT*dA*dA*d[5mC]*dT*dG*dG*dG*k[5mC]*kA*kA) [compound 958590]           69
23  1198746 (kG*e[5mC]*kA*d[5mC]*dT*dT*dT*dT*dA*d[5mC]*dA*dT*eT*eA*kG*kG) [compound 1198746]           49
24  1198460 (kG*kA*dA*dA*dT*dT*dG*dT*d[5mC]*dT*d[5mC]*eA*kT*eG*k[5mC]*e[5mC]; antisense) [compound 1198460]           60
25  1198211 (kA*kT*dT*dA*dG*dA*dG*dT*dA*dT*dG*eT*eG*eG*k[5mC]*kA) [compound 1198211]           72
26  1198295 (kT*kA*kG*dA*dG*dT*dA*dT*dG*dT*dG*dG*k[5mC]*eA*kA*eT; antisense) [compound 1198295]           82
